target: PfkA (Bacillus subtilis); construct: full-length, N-terminal His6-Gly3 tag (from primer), recombinant in E. coli BW25113, pTrc99KK, Ni-NTA; assay: coupled spectrophotometric assay, NADH at […] nm; assay type: biochemical
Sequence (O34529 2-319): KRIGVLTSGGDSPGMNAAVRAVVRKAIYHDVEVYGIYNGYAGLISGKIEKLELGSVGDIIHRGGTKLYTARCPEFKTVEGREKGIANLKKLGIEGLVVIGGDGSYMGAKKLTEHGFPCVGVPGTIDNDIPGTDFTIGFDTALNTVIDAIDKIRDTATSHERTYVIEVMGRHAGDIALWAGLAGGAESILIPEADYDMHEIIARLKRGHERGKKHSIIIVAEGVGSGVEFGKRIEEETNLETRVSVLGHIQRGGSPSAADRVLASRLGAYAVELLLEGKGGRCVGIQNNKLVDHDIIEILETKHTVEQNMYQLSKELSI
Value type: Ki (µM)

| Molecule | Value type | Val |
| --- | --- | --- |
| C=C(OP(=O)(O)O)C(=O)O [PEP, phosphoenolpyruvate] | Ki | 40 |
